Hey, just so you know, these numbers are from paper PMC9810167.

# ASSAYED_SYSTEM: HDAC7 (Homo sapiens)
# Sequence (Q8WUI4 whole entry, canonical isoform): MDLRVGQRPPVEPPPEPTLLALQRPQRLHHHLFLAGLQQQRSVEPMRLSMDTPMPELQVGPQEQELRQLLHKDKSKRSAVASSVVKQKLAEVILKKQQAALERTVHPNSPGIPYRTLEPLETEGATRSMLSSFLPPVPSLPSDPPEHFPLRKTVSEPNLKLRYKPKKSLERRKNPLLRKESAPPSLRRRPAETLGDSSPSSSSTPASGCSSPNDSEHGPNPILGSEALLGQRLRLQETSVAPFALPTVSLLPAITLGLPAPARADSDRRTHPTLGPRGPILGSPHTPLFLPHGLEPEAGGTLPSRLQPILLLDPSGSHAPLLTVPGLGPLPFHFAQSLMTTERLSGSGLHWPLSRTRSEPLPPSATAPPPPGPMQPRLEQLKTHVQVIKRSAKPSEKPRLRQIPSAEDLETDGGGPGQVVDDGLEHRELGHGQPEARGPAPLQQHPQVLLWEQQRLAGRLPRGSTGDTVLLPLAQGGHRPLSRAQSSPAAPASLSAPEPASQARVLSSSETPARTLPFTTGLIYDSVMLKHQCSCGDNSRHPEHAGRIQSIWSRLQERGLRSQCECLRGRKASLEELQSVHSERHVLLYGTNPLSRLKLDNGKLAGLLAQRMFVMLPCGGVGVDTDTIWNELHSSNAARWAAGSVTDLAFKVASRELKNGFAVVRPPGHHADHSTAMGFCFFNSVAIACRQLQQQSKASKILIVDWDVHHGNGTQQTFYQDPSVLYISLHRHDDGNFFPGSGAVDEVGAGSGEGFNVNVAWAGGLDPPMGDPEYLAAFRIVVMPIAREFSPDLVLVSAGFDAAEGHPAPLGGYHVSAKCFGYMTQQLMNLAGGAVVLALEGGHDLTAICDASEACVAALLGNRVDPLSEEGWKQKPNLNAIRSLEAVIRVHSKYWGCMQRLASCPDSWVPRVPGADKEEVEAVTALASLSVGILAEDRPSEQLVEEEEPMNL
# EXPERIMENT_DESCRIPTION: HDAC isoform inhibition assay (Reaction Biology)
# COND: generated at Reaction Biology Corporation
QUANTITY: IC50 (µM)
Expressed in µM, but write only the number.

Ask: Quick one: IC50 of O=C(NO)c1ccc(CCCN2CCC(CN[C@H]3C[C@@H]3c3ccccc3)CC2)cc1 (relative stereo) ?
Result: 3.58

====

# System: remaining HDACs
# EXPERIMENT_DESCRIPTION: HDAC panel HDAC1 to HDAC10, remaining HDACs (other than HDAC6 and HDAC8)
# Assay type: biochemical
# COND: about […] to >10 μM, read-out: IC50 against the remaining HDACs
QUANTITY: IC50

Ask: // returns reported IC50 for input O=C(NO)c1ccc(CCCN2CCC(CN[C@H]3C[C@@H]3c3ccccc3)CC2)cc1 (relative stereo)
Result: ≥ 1100 nM
